The measurements presented in this section are drawn from ChEMBL document CHEMBL1154952.

# assay-name: Aqueous solubility in 50 mM phosphate buffer
# Assay type: physicochemical
assay-metric: solubility

[[record]]
smiles_code = "CCn1c(C(=O)c2cc(C)cc(C#N)c2)c(C(C)C)c(=O)n(COP(=O)(O)O)c1=O"
reading = "12000 µg/mL"

[[record]]
smiles_code = "CCn1c(C(=O)c2cc(C)cc(C#N)c2)c(C(C)C)c(=O)[nH]c1=O"
reading = "11 µg/mL"

[[record]]
smiles_code = "CCn1c(C(=O)c2cc(C)cc(C#N)c2)c(C(C)C)c(=O)n(COC(C)=O)c1=O"
reading = "2.2 µg/mL"


Name the reported solubility value associated with the compound "CCn1c(C(=O)c2cc(C)cc(C#N)c2)c(C(C)C)c(=O)n(COC(=O)OC(C)C)c1=O"
< 1 µg/mL

---

# assay-name: Oral bioavailability in Beagle dog at 0.5 mg/kg
# Format: ADME, organism-based, Canis lupus familiaris
# study-conditions: in vivo
assay-metric: bioavailability (%)
Answers are plain numbers, in %.

Name the reported bioavailability value associated with the molecule "CCn1c(C(=O)c2cc(C)cc(C#N)c2)c(C(C)C)c(=O)[nH]c1=O"
69

---

# target-under-test: Albumin (Homo sapiens)
# Sequence (P02768 whole entry): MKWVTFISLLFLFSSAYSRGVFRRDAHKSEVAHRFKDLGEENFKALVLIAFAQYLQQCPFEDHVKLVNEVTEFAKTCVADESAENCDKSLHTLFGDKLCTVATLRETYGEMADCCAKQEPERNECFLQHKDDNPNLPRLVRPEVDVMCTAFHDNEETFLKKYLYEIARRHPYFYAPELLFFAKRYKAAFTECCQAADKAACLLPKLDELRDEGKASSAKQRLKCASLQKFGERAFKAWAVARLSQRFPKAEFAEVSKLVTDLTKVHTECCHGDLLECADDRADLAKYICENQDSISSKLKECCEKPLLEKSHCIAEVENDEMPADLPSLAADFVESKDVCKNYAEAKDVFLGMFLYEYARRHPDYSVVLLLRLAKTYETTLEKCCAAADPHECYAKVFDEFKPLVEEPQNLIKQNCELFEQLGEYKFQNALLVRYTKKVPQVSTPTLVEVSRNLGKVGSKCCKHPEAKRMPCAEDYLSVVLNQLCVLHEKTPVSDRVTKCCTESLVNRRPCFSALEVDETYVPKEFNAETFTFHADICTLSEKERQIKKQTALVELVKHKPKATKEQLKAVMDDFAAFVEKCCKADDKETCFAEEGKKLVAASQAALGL
# assay-name: Binding affinity to human serum albumin
# Assay type: ADME
# study-conditions: read-out: PB (converted)
Mark TRUE for fraction unbound under 0.01, FALSE if at or over.

Example results:
[[record]]
compound = "O=C1Nc2ccc(Cl)cc2[C@@](C#CC2CC2)(C(F)(F)F)O1"
class_label = "TRUE"

[[record]]
compound = "Cc1cc(C#N)cc(C)c1Oc1nc(Nc2ccc(C#N)cc2)nc(N)c1Br"
class_label = "TRUE"


Lab log: compare recorded fraction unbound with 0.01; is it strictly lower for "CCn1c(C(=O)c2cc(C)cc(C#N)c2)c(C(C)C)c(=O)[nH]c1=O" ?
FALSE

Lab log: compare recorded fraction unbound with 0.01; is it strictly lower for "Cc1cc(C#N)cc(C(=O)c2c(C(C)C)c(=O)[nH]c(=O)n2C)c1" ?
FALSE

Lab log: compare recorded fraction unbound with 0.01; is it strictly lower for "CCCCn1c(C(=O)c2cc(C)cc(C#N)c2)c(C(C)C)c(=O)[nH]c1=O" ?
TRUE

Lab log: compare recorded fraction unbound with 0.01; is it strictly lower for CCn1c(C(F)c2cc(C)cc(C#N)c2)c(C(C)C)c(=O)[nH]c1=O (stereo unspecified) ?
FALSE

Lab log: compare recorded fraction unbound with 0.01; is it strictly lower for "CCn1c(C(F)(F)c2cc(C)cc(C#N)c2)c(C(C)C)c(=O)[nH]c1=O" ?
FALSE

Lab log: compare recorded fraction unbound with 0.01; is it strictly lower for "CCc1c(C(=O)c2cc(C)cc(C#N)c2)n(CC)c(=O)[nH]c1=O" ?
FALSE

Lab log: compare recorded fraction unbound with 0.01; is it strictly lower for "CCn1c(C(=O)c2cc(C)cc(C#N)c2)c(C(C)(C)C)c(=O)[nH]c1=O" ?
TRUE

Lab log: compare recorded fraction unbound with 0.01; is it strictly lower for "CCn1c(Oc2cc(C)cc(C#N)c2)c(C(C)C)c(=O)[nH]c1=O" ?
FALSE

Lab log: compare recorded fraction unbound with 0.01; is it strictly lower for "CCCn1c(C(=O)c2cc(C)cc(C#N)c2)c(C(C)C)c(=O)[nH]c1=O" ?
TRUE
